- system-name: T1, human C1s (human, UniProt P09871 16-688)
- T1 construct: Analyte in the Biacore assays; also called hC1s; serum-derived human C1s (CompTech)
- T1 sequence: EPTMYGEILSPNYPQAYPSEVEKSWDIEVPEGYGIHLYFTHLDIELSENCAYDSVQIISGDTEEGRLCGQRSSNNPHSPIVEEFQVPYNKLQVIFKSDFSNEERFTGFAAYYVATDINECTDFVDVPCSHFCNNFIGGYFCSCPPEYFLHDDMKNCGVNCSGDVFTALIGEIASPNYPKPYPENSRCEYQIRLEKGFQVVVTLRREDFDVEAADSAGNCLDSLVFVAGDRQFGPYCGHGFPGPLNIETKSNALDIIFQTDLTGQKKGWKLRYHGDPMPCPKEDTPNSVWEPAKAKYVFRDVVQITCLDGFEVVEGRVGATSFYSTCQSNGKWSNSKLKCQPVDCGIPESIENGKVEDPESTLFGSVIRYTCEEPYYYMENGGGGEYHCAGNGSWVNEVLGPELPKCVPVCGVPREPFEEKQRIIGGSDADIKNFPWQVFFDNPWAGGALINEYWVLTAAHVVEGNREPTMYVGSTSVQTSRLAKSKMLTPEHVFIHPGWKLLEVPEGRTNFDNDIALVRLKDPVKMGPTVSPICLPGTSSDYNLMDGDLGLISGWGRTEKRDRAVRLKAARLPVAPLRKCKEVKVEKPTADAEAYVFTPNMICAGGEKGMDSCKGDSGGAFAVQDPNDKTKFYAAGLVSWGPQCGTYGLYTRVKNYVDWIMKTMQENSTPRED
- protocol-description: SPR (Biacore T200, 37C), Ab captured on protein A/G; pH 5.8, 3 uM Ca
property-label: koff (s⁻¹)
Give your result in s⁻¹ as a bare value.

Illustrative cases are given below, each with its answer.
C1_IPN92H0156-SG4GK/IPN93L0024-SK1 (antibody, human IgG4 S228P, kappa, name in Kabat numbering, V domains shown, Substitutions from IPN009VH2, Kabat numbering; also called IPN92H0156/IPN93L0024) VH: EVMLVESGGGLVKPGGSLRLSCAASGFTFSNYAMSWVRQAPGKGLEWVATISSGGSHTKYLDSVKGRFTISRDNSKDTLYLQMNSLRAEDTALYYCARLFTGHAMDYWGQGTLVTVSS VL: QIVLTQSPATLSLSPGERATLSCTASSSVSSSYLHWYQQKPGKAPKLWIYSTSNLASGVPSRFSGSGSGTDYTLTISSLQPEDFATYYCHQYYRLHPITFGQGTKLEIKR :: 0.00632
C1_IPN92H0282-SG4GK/IPN93L0024-SK1 (antibody, human IgG4 S228P, kappa, name in Kabat numbering, V domains shown, Substitutions from IPN009VH2, Kabat numbering; also called IPN92H0282/IPN93L0024) VH: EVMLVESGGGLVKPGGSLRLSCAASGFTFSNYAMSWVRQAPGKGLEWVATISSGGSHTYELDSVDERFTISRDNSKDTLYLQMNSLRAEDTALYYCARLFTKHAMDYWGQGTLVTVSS VL: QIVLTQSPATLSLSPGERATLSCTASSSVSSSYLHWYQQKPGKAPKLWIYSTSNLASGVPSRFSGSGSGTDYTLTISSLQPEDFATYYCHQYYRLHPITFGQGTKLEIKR :: 0.00327
C1_IPN92H0157-SG4GK/IPN93L0024-SK1 (antibody, human IgG4 S228P, kappa, name in Kabat numbering, V domains shown, Substitutions from IPN009VH2, Kabat numbering; also called IPN92H0157/IPN93L0024) VH: EVMLVESGGGLVKPGGSLRLSCAASGFTFSNYAMSWVRQAPGKGLEWVATISSGGSHTRYLDSVKGRFTISRDNSKDTLYLQMNSLRAEDTALYYCARLFTGHAMDYWGQGTLVTVSS VL: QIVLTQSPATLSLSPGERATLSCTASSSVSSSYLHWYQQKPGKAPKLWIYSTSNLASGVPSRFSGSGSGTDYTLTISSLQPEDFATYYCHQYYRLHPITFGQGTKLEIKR :: 0.00583
C1_IPN92H0144-SG4GK/IPN93L0024-SK1 (antibody, human IgG4 S228P, kappa, name in Kabat numbering, V domains shown, Substitutions from IPN009VH2, Kabat numbering; also called IPN92H0144/IPN93L0024) VH: EVMLVESGGGLVKPGGSLRLSCAASGFTFSNYAMSWVRQAPGKGLEWVATISSGGSKTYYLDSVKGRFTISRDNSKDTLYLQMNSLRAEDTALYYCARLFTGHAMDYWGQGTLVTVSS VL: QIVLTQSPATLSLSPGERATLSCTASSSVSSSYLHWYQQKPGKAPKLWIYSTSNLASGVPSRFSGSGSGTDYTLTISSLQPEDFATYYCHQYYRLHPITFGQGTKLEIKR :: 0.00317

Continue with the next binder.
Which koff is reported for this binder? C1_IPN92H0193-SG4GK/IPN93L0024-SK1 (antibody, human IgG4 S228P, kappa, name in Kabat numbering, V domains shown, Substitutions from IPN009VH2, Kabat numbering; also called IPN92H0193/IPN93L0024) VH: EVMLVESGGGLVKPGGSLRLSCAASGFTFSNYAMSWVRQAPGKGLEWVATISSGGSHTYYLDSVKDRFTISRDNSKDTLYLQMNSLRAEDTALYYCARLFTGHAMDYWGQGTLVTVSS VL: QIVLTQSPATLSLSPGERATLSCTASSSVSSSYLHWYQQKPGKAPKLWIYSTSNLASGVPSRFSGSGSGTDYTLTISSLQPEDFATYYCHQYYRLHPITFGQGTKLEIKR
0.0685
